Hello, the source for this data is the CheMixHub drug solubility set, in case you need it.

# solubility (g/100 g solution) annotations
Assay: xn = mol fraction of the nth substance listed, in the solute-free solvent
Details: 313.15 K; x2 = 0.5
quantity: solubility (g/100 g solution)

>>> experimentalresult("CC(=O)OC(c1ccccc1)C(Cl)(Cl)Cl (stereo not given) + CC(C)O + O")
6.25
>>> experimentalresult("O=C(O)c1ccc(C(=O)O)o1 + C1CCOC1 + O")
7.76
>>> experimentalresult("O=C1CCc2ccc(OCCCCN3CCN(c4cccc(Cl)c4Cl)CC3)cc2N1 + CCC(C)=O + CCOC(C)=O")
3.16
>>> experimentalresult("O=C(O)c1ccc(C(=O)O)o1 + O + COCCOC")
6.03
>>> experimentalresult("CCCCOc1ccc(C(=O)CCN2CCCCC2)cc1.Cl + CO + C1CCOC1")
39.6
>>> experimentalresult("COC1=CC(=O)CC(C)C12Oc1c(Cl)c(OC)cc(OC)c1C2=O (stereo not given) + CC(=O)CC(C)C + CC(C)O")
1.23
>>> experimentalresult("COC1=CC(=O)CC(C)C12Oc1c(Cl)c(OC)cc(OC)c1C2=O (stereo not given) + CC(C)=O + CC(C)O")
2.51
>>> experimentalresult("O=C(O)c1ccc(C(=O)O)o1 + C1COCCO1 + O")
5.03
>>> experimentalresult("O=C(O)C1CSCN1 (stereo not given) + O + CC#N")
0.392
>>> experimentalresult("CCCCOc1ccc(C(=O)CCN2CCCCC2)cc1.Cl + CCO + CCCCCC")
27.3
